# ASSAYED SYSTEM: T1, MBP-AF9 (D544R) (UniProt P42568 1-568, D544R)
# T1 sequence (looked up): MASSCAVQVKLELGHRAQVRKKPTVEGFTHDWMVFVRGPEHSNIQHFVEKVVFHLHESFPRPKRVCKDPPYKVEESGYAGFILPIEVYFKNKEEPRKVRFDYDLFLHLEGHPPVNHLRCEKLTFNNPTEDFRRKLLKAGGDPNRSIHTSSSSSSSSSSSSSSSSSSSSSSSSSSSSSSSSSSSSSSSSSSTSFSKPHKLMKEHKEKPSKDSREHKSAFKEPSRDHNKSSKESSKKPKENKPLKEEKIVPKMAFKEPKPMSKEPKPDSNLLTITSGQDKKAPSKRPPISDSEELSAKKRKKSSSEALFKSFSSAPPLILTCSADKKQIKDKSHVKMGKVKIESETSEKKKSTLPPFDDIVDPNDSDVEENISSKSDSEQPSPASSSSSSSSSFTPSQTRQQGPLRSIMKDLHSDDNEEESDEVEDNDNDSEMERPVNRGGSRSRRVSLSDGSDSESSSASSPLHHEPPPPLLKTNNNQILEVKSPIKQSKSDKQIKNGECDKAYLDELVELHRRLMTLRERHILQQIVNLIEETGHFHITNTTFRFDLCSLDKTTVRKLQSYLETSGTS
# PROCEDURE DETAILS: other fluorescence titration
Where no end group is shown, it is not given here.

BINDER | UOM | Kd
LIVDIDLNLLTRIP (also: fluorescein (position not given here)) [Fluorescein AFF4 (K717D) peptide] | nM | 0.21
